B1: TPR 5TU (parent)
chain: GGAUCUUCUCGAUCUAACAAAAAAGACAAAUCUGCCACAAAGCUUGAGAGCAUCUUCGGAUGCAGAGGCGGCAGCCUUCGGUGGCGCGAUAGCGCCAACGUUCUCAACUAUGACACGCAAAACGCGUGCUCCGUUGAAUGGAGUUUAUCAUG

Variants of: B1
Experiment: polymerase ribozyme fitness, log enrichment relative to wild type (log ratio); higher = more active; in vitro selection for triplet polymerase activity
Fewer inactive variants are shown than the library holds.
endpoint: polymerase ribozyme fitness (log ratio)
Lab note: write the figure by itself, no unit.

polymerase ribozyme fitness (log ratio) for C36U G46U G86U C105A G124U ?
-3.12

Please do the same for A40U A122C as well.
0.0565

Please do the same for A20C C99G as well.
-1.06

Please do the same for A115C G133U as well.
-3.74

Please do the same for A12C C85G A122C as well.
-2.14

Please do the same for G50U G126A G141C as well.
-4.02

Please do the same for C51U C99U as well.
-0.392

Please do the same for U31G G50A as well.
-1.51

Please do the same for A37G G58C C85A as well.
-3.83

Please do the same for U9A G141A as well.
-2.94
